- Target: OR2W1 L202C (Homo sapiens, UniProt Q9Y3N9, L202C)
- Construct: full-length gene-specific forward and reverse primers were added; 39aa rho-tag; expressed in transfected cells; host or cells: NxG 108CC15 or HEK-293 cells
- Sequence (Q9Y3N9 whole entry L202C): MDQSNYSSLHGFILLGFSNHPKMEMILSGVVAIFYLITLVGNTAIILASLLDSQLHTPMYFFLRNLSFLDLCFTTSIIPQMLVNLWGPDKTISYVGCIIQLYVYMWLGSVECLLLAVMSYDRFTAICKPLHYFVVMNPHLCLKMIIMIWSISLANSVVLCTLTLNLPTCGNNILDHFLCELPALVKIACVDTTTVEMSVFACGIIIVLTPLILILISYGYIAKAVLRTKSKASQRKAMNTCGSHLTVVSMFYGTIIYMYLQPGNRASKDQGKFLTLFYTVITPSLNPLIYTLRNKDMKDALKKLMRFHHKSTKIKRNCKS
- Experiment: GloSensor assay, OR2W1 L202C
- Type: cell-based
- Applied conditions: 10 µmol/L Cu^2+, read-out: EC50 in the presence of Cu^2+
# key: entry, value: EC50

[
  {
    "Compound": "CCCC(S)CCOC(C)=O (centres unmarked) [3-Mercaptohexyl acetate, 3-mercaptohexyl acetate]",
    "Measure unit": "µM",
    "EC50": 114
  },
  {
    "Compound": "SCCc1ccccc1",
    "Measure unit": "µM",
    "EC50": 63.4
  }
]
